- MEASUREMENT_DESCRIPTION: viability of PTEN-null HCT116 cells – cell-based, HCT116 clonal line, CellTiter-Glo, pilot screen (AID 824);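 note: 0% = 20 µM Hyamine control and 100% = vehicle cell control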
- CONDITION_DESCRIPTION: HCT116 PTEN-deleted viability, 60 h, at 10 µM
Results filed as inconclusive are left out. Active and inactive are the calls of the source.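 Rule for the calls: active = viability at or below 27.92% in each of two runs, the all-compound median minus 4 SD; inconclusive = no clear call, values can overlap the other calls; inactive = the rest.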
Can you answer with just one of these options? active, inactive

# COMPOUND, GROUP_LABEL
rows = [
    ("Cc1cc(C(N)=O)c2cc(Br)ccc2n1", "inactive"),
    ("CCCCn1c(CN2CCN(c3ccc(F)cc3)CC2)nc2c1c(=O)n(C)c(=O)n2C", "inactive"),
    ("O=C(Nc1ccc(-c2nc3cccnc3s2)cc1)c1ccco1", "inactive"),
    ("Cc1ccc(OCC(=O)Nc2ccc(O)c(-c3nc4ccccc4o3)c2)cc1", "inactive"),
    ("CN(C(=O)c1ccccc1C(=O)c1ccccc1)C1CCS(=O)(=O)C1 (stereo unspecified)", "inactive"),
]

Tell me the assay call for `COc1ccc(S(=O)(=O)N2CCN(C)CC2)cc1C` please. inactive

Outcome? O=C(CSc1nnc(Cn2c(=O)sc3ccccc32)n1-c1ccccc1)NCC1CCCO1 (stereo unspecified) inactive

Please state the recorded outcome for this compound: `Cc1nc2ccccc2c2oc(C(=O)N3CCC(N4CCCCC4)CC3)cc12` inactive

###

- MEASUREMENT_DESCRIPTION: doxorubicin toxicity protection in MRP-1 cells – H69AR cells, CellTiter-Glo, duplicate, MRP-1 activator project, pilot screen (AID 807);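 note: compound pretreatment 18-22 h then 72 h combined with doxorubicin; 0% = doxorubicin alone and 100% = vehicle without doxorubicin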
- CONDITION_DESCRIPTION: H69AR viability with doxorubicin, CellTiter-Glo luminescence; at 10 µM; stronger effect = higher value
Examples of compounds with documented viability increase follow.
The figure you give is taken to be in %; do not add the unit.

# COMPOUND, QUANTITY_MEASURED, VALUE_UNIT, NUMERIC_RESULT
rows = [
    ("O=C(CSc1nc2c(c(=O)n1-c1ccc(F)cc1)SCC2)NCC1CCCO1 (stereo unspecified)", "viability increase", "%", -3.46),
    ("CCOc1ccccc1NC(=O)CSc1nnc(-c2ccccn2)n1Cc1ccco1", "viability increase", "%", -1.92),
    ("Cc1ccc(C(=O)Nc2ccc3c(c2)CCC3)o1", "viability increase", "%", -2.44),
    ("COc1ccc(NC(=O)CN(c2ccc(C(C)C)cc2)S(=O)(=O)c2c(C)noc2C)cc1OC", "viability increase", "%", -3.99),
]

Item under review: `CCN1CCN(c2cc(=O)n(C3CCCCC3)c(=O)[nH]2)CC1` . Reported viability increase? 0.11

// lookup viability increase for `Cn1c(NC(=O)c2ccccc2F)cc(=O)n(C)c1=O` 0.23

Name the recorded viability increase for Cc1ccc(C2CC(=O)NC(SCc3ccccc3)=C2C#N)o1 (stereo unspecified) . -3.75

For O=C(COC(=O)C1CC2C=CC1C2)Nc1ccc2c(c1)OC(F)(F)O2 (stereo unspecified) , what is its reported viability increase? 3.74

Which value of viability increase has been reported for `CCOC(=O)C1CCN(C(=O)CN(c2ccc(Cl)c(C(F)(F)F)c2)S(C)(=O)=O)CC1` in the records? -3.24

Which viability increase value is on record for Cc1c(C(=O)OCc2ccccc2)[nH]c2c1C(=O)CC(c1ccco1)C2 (stereo unspecified) ? -4.85

Need viability increase, item `O=C(CCN1C(=O)c2ccccc2C1=O)Nc1ccc(F)cc1` 3.01

###

Parameter inhibition: see the listing below.
- MEASUREMENT_DESCRIPTION: RAM pathway blockade in budding yeast – dse1pr::URA3 reporter, 5-FOA selection, pilot screen (AID 869);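 note: 0% = DMSO wells with no growth and 100% = 10 µM 1-NA-PP1 with full growth; RAM network block rescues cells from 5-FOA so hits raise OD615 growth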
- CONDITION_DESCRIPTION: S. cerevisiae dse1pr::URA3 5-FOA growth, OD615, 2 d; at 10 µM; stronger effect = higher value; strain carries analog-sensitive mutant Cbk1 kinase
Activity calls are given as the source filed them.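 How the source made its calls: active means inhibition over a set limit, the all-compound mean plus 3 SD, in both replicate runs; inconclusive means over that limit in just one replicate run; inactive means at or under that limit in both runs.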

Some molecules with recorded inhibition:
# MOLECULE, RESULT
records = [
    ("C=CCN1C(=O)c2oc3ccccc3c(=O)c2C1c1ccc(O)c(OC)c1 (centres undefined)", "2.72% (inactive)"),
    ("COc1ccc(NC(=O)c2cnn3c(C(F)(F)F)cc(-c4ccco4)nc23)cc1OC", "1.89% (inactive)"),
    ("COc1c(S(=O)(=O)n2nc(C)cc2C)ccc(Cl)c1Cl", "1.5% (inactive)"),
]

// lookup inhibition for `c1csc(Cc2nc3ccccc3[nH]2)c1` 2.71% (inactive)

Need inhibition of `N#Cc1cnc2sc3ccccc3n2c1=N` , thanks. -0.405% (inactive)

Can you share its inhibition? I mean this molecule: `Cc1cc(NC(=O)CS(=O)(=O)c2cn(Cc3cccc(F)c3)c3ccccc23)no1` 1.3% (inactive)

Which inhibition is listed for CC(Oc1ccc2oc(-c3ccccc3)c(C(=O)O)c2c1)C(=O)O (centres undefined) ? 1.73% (inactive)

###

- MEASUREMENT_DESCRIPTION: reduced viability of SK-BR-3 breast cancer cells – cell-based, 24 h, human, pilot screen (AID 572);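 note: compound exposure lasted between 18 and 24 h rather than exactly 24 h; 100% = carrier-treated control wells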
- CONDITION_DESCRIPTION: SK-BR-3 viability, CellTiter-Glo luminescence, at 10 µM, stronger effect = lower value
QUANTITY_MEASURED: viability (%)
Write down the numeric answer in % and omit the unit.

Sample records with viability:
# MOLECULE, viability / %
data = [
    ("CCOC(=O)N1CCC(N2C(=O)c3ccccc3C2Nc2ccccc2C)CC1 (stereo unspecified)", 95.5),
    ("Nc1[nH]nc2nc(N3CCCC3)nc(-c3ccccc3)c12", 113),
    ("COc1ccc(OC)c(C(=O)c2ccc(C(=O)O)cc2)c1", 120),
]

Any idea what its viability is? The molecule is CC1CCc2nn(CC(=O)NCCN3CCOCC3)cc2C1 (stereo unspecified) 101

Which viability reading was recorded for the molecule COc1cc(C(O)c2nc3ccccc3n2C)cc(OC)c1OC (stereo unspecified) ? 91.5

Using the record for `CC1CCN(Cc2nc3c(c(=O)n(C)c(=O)n3C)n2Cc2cccc3ccccc23)CC1` , report its viability. 84

Name the reported viability value associated with the molecule CCSc1nc2c(c(=O)[nH]1)C(c1cccnc1)C(C(=O)OC(C)C)=C(C)N2 (stereo unspecified) 95.5

Could you tell me which viability is on file for `CCc1ccccc1NC(=O)c1cnc2n(c1=O)CCS2` ? 90.5

Which viability reading was recorded for the molecule COc1cccc(C2CC(=O)Nc3c2c(=O)n(C)c(=O)n3C)c1OC (stereo unspecified) ? 98.5

// lookup viability for `O=C(Cc1cccs1)Nc1ccccc1NC(=O)Cc1cccs1` 81

Please give the measured viability for this molecule: `COc1nc(Oc2ccc(=O)n(C)n2)nc(N(C)C)n1` 81

###

Measured growth inhibition values are reported for all entries that follow.
- MEASUREMENT_DESCRIPTION: S. cerevisiae growth inhibition in permissive medium (OD615), pilot counter-assay for S. cerevisiae lifespan shortening project, permissive growth control (AID 705)
- CONDITION_DESCRIPTION: OD615, 24 h, at 10 µM, stronger effect = higher value
Calls of active or inactive are those of the source.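 How the source made its calls: active means growth inhibition above 25% in both replicates, a cutoff set 3 SD above the mean; inconclusive means above 25% in only one replicate; inactive means the rest.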

# MOLECULE, growth inhibition
measured = [
    ("COCCn1c(=N)c(C(=O)NCCc2ccccc2)cc2c(=O)n3cccc(C)c3nc21", "1.32% (inactive)"),
    ("CCC(C)NC(=O)C1c2cc(OC)c(OC)cc2C(=O)N(C)C1c1ccc(OC)cc1 (stereo not given)", "-5.75% (inactive)"),
    ("COc1ccc(NC(=O)c2c(-c3ccccc3)noc2C)c(OC)c1", "-16% (inactive)"),
    ("Cc1ccc(-c2cc(C(F)F)n3ncc(C(=O)N4CCN(c5ccccn5)CC4)c3n2)cc1", "-6.85% (inactive)"),
    ("CC1CCCCN1CCNC(=O)C1CCN(S(=O)(=O)c2cccc3cccnc23)CC1 (stereo not given)", "8.94% (inactive)"),
]

Which growth inhibition value is on record for CCSCCOC(=O)C1=C(C)NC(=O)NC1c1cccc(OC)c1OC (stereo not given) ? -15% (inactive)

Give the measured growth inhibition of CCOc1ccc(C2CC(c3cccc(OC)c3)Nc3nc(N)nn32)cc1 (stereo not given) . 5.33% (inactive)

Returns the measured growth inhibition for the input molecule. Input: `Nc1cc(N)nc(SCCOc2ccccc2)n1` -4.79% (inactive)

Please give the measured growth inhibition for this molecule: O=C(C1COc2ccccc2O1)N1CCCC1 (stereo not given) -16.3% (inactive)

Return reported growth inhibition; argument: CC1CCCCN1C(=O)c1ccc(S(=O)(=O)N2CCCCC2C)cc1 (stereo not given) -5.29% (inactive)

###

- MEASUREMENT_DESCRIPTION: growth suppression of yeast trafficking mutant, preliminary HTS, modulators of trafficking downstream of Golgi apparatus project, 1536-format plate, OD 615 nm (AID 637)
- CONDITION_DESCRIPTION: yeast transport mutant growth, absorbance 615 nm, 18 h; stronger effect = higher value
QUANTITY_MEASURED: inhibition (%)
Respond numerically; units are % and should not be typed.

Reference set, count: 8
# COMPOUND, inhibition (%)
rows = [
    ("Cc1ccc(-n2c3c(cc(C(=O)NC4CCSC4=O)c2=O)C(=O)CC(C)(C)C3)cc1 (stereo unspecified)", -0.67),
    ("COC1CCCCC1Nc1cccc(SC)c1 (stereo unspecified)", -3),
    ("Cc1cnc(NC(=O)CSc2nnc(COc3c(C)cccc3C)o2)s1", 4.83),
    ("COc1cc(C(O)c2nc3ccccc3n2C)cc(OC)c1OC (stereo unspecified)", -7.33),
    ("CCCN1CC23C=CC(O2)C(C(=O)O)C3C1=O (stereo unspecified)", 0.16),
    ("COc1cccc(-c2nc(CS(=O)(=O)CC(=O)N3CCN(c4ccccn4)CC3)c(C)o2)c1", 3.61),
    ("CC1(C)NC(=O)N(CC(O)COc2cccc(F)c2)C1=O (stereo unspecified)", -1),
    ("COc1ccc(N2CCN(CCCNS(=O)(=O)c3c(C)noc3/C=C/N(C)C)CC2)cc1", -4.43),
]

Requested read-out: inhibition. Entry: CC1CCCCN1CCNC(=O)c1ccc2c(=O)n(CCc3ccccc3)c(=O)[nH]c2c1 (stereo unspecified) 1.17

Which inhibition is listed for `CCc1cc(=O)n2[nH]c(C)c(-c3ccccc3OC)c2n1` ? -6.83

Which inhibition is reported for this compound? O=C1CC(c2ccco2)CC(O)=C1C=NCCN1CCNCC1 (stereo unspecified) 5.56
